System: HCT-15 colon
method: NCI-60 one-dose screen, 48 h (100 = growth as untreated, 0 = no growth, -100 = all killed)
conditions_used: 10 µM unless noted
Compounds without any hit were thinned out: in the full panel of roughly 83,000, 20% have a hit.
value_type: growth (%)
Numbers only, in %.

{"molecule": "C=C1CCC2C(C)(CO)C(O)CCC2(C)C1CC(NCc1ccccc1)C1=CCOC1=O (stereo not given)", "tgt": "HCT-15 colon", "growth, %": 105}
{"molecule": "CCCCCCCCCCCCNC(=O)[C@H]1CSC(c2cc(Br)cs2)N1 (stereo not given in full)", "tgt": "HCT-15 colon", "growth, %": 3.37}

// each listed molecule needs a value for growth
1. Cc1ccc(-c2csc(NC(=O)CCCCl)n2)cc1
2. Nc1cccc(-c2nc3sccn3c2-c2ccnc(NCCCNS(=O)(=O)c3cccc4ccccc34)n2)c1
3. COc1ccc(-c2cn(-c3cccc(C(=O)/C=C/c4cc(OC)c(OC)c(OC)c4)c3)c(=O)[nH]2)cc1OC
4. O=S(=O)(NCCNc1nccc(-c2c(-c3ccc(F)cc3)nc3sccn23)n1)c1ccc(F)cc1

Out:
[95.1, 25.4, 82.1, 59]
